Molecular target: JFH-1 NS3 (Hepatitis C virus genotype 2a strain …, UniProt Q99IB8 1031-1661)
Sequence (Q99IB8 1031-1661): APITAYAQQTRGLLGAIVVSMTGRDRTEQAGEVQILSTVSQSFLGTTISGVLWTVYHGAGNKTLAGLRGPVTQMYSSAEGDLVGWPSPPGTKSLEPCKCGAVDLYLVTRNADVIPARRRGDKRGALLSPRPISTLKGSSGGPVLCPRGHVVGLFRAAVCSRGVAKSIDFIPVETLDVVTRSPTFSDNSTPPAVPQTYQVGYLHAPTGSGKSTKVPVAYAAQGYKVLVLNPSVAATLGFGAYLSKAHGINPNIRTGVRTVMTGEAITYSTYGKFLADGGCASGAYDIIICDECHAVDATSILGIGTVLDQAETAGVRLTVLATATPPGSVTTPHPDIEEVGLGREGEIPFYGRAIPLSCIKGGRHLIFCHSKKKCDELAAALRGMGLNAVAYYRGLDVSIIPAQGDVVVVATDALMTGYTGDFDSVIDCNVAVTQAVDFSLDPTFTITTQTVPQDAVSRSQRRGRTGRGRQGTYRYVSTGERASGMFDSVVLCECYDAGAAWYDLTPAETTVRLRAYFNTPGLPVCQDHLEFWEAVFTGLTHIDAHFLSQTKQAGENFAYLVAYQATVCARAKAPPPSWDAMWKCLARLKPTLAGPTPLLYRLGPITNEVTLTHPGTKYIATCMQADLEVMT
Assay: filter binding; 3 mM Mg2+; legend names NS3-4A; 25 mM MOPS-NH4+ pH 6.5, 3 mM MgCl2, 30 mM NaCl, 1% glycerol, 2 mM DTT, 0.1% Triton X-100; filter binding 37 C, 0.5 nM RNA, Hill fit; stopped flow 25 C
Details: protein: recombinant; tags: His6-SUMO removed (native N terminus); label: 5'-32P
parameter: Kd

binder	parameter	result
CUGUGGCAUGUCCUAGCGUCGUAUCGAUCUGGUC (ssRNA) [ssT34]	Kd	8.36 nM
